Below, each of the compounds is paired with its reported CC50 at 3 day value.
Assay Info: Cell viability (CC50) alongside ZIKV antiviral assay, Cell-titer Glo
Type: cell-based
Experimental Conditions: human, Huh-7 cells, cytotoxicity column of the ZIKV assay; read-out: ZIKV CC50

C[C@H](NP(=O)(OC[C@@]1(N=[N+]=[N-])O[C@@H](n2ccc(=O)[nH]c2=O)[C@H](O)[C@@H]1O)Oc1cccc2ccccc12)C(=O)OCc1ccccc1 (some centres unmarked) [Compound I-1] :: > 10 µM

Lab note: next compound to report on.
Just so you know, measured CC50 at 3 day for CCOC(=O)[C@H](C)NP(=O)(OC[C@@]1(N=[N+]=[N-])O[C@@H](n2ccc(=O)[nH]c2=O)[C@H](O)[C@@H]1O)Oc1cccc2ccccc12 (some centres unmarked) [Compound I-3] came out at > 100 µM

----------
Assayed System: mitochondrial DNA polymerase pol γ (Homo sapiens)
Sequence (P54098 whole entry): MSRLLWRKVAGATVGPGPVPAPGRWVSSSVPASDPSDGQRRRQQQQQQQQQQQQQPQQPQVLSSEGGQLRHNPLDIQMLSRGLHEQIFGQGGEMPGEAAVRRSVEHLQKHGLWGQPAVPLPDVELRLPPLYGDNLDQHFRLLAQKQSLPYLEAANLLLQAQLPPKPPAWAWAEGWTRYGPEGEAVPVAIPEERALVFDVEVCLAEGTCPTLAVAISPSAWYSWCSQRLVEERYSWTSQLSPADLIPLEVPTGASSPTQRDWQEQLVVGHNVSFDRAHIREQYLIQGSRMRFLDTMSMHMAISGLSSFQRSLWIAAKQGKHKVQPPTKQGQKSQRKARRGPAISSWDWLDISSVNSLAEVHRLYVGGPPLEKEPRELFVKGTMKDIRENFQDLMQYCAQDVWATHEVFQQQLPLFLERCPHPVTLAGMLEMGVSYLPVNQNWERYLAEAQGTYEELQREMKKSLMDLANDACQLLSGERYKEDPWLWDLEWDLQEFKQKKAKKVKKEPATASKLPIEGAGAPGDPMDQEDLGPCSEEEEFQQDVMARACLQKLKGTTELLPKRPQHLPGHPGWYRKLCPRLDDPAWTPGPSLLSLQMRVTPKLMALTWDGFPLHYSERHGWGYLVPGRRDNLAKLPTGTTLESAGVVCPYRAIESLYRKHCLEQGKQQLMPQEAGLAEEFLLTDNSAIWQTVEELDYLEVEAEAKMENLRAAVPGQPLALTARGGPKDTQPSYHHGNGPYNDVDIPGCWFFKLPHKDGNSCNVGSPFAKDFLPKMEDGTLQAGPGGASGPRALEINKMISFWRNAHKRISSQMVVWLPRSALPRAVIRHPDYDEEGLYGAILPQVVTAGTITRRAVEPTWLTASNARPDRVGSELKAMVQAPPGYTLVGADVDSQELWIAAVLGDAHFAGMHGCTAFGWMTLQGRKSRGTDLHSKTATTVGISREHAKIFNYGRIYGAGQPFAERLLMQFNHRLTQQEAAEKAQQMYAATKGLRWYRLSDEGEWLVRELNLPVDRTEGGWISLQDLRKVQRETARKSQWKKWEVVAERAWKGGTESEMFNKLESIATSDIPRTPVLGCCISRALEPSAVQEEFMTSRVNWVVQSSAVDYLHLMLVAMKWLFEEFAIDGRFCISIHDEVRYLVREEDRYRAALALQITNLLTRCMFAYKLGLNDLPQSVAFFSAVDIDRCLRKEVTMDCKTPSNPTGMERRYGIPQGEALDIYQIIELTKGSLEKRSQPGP
Assay Info: Inhibition of mitochondrial DNA polymerase pol γ
Format: biochemical
Experimental Conditions: comparison nucleoside triphosphates; read-out: DNA pol γ mean IC50
Metric Name: pIC50
Scale: negative log10 of molar concentration, which is what pIC50 denotes.

Cc1cn([C@H]2C[C@H](N=[N+]=[N-])[C@@H](COP(=O)(O)OP(=O)(O)OP(=O)(O)O)O2)c(=O)[nH]c1=O [AZT triphosphate] :: 5.61

The recorded pIC50 with mitochondrial DNA polymerase pol γ (Homo sapiens) for Nc1ccn([C@@H]2CS[C@H](COP(=O)(O)OP(=O)(O)OP(=O)(O)O)O2)c(=O)n1 [lamivudine triphosphate] was 3.83

----------
Assay Info: Solubility in cell culture medium / aqueous media
Experimental Conditions: plasma or biological fluid
Metric Name: solubility

Just so you know, measured solubility for C[C@H](NP(=O)(OC[C@@]1(N=[N+]=[N-])O[C@@H](n2ccc(=O)[nH]c2=O)[C@H](O)[C@@H]1O)Oc1cccc2ccccc12)C(=O)OCc1ccccc1 (stereo partly shown) came out at ≤ 10 µM

----------
Assayed System: human DNA polymerase α (Homo sapiens)
Sequence (P09884 whole entry): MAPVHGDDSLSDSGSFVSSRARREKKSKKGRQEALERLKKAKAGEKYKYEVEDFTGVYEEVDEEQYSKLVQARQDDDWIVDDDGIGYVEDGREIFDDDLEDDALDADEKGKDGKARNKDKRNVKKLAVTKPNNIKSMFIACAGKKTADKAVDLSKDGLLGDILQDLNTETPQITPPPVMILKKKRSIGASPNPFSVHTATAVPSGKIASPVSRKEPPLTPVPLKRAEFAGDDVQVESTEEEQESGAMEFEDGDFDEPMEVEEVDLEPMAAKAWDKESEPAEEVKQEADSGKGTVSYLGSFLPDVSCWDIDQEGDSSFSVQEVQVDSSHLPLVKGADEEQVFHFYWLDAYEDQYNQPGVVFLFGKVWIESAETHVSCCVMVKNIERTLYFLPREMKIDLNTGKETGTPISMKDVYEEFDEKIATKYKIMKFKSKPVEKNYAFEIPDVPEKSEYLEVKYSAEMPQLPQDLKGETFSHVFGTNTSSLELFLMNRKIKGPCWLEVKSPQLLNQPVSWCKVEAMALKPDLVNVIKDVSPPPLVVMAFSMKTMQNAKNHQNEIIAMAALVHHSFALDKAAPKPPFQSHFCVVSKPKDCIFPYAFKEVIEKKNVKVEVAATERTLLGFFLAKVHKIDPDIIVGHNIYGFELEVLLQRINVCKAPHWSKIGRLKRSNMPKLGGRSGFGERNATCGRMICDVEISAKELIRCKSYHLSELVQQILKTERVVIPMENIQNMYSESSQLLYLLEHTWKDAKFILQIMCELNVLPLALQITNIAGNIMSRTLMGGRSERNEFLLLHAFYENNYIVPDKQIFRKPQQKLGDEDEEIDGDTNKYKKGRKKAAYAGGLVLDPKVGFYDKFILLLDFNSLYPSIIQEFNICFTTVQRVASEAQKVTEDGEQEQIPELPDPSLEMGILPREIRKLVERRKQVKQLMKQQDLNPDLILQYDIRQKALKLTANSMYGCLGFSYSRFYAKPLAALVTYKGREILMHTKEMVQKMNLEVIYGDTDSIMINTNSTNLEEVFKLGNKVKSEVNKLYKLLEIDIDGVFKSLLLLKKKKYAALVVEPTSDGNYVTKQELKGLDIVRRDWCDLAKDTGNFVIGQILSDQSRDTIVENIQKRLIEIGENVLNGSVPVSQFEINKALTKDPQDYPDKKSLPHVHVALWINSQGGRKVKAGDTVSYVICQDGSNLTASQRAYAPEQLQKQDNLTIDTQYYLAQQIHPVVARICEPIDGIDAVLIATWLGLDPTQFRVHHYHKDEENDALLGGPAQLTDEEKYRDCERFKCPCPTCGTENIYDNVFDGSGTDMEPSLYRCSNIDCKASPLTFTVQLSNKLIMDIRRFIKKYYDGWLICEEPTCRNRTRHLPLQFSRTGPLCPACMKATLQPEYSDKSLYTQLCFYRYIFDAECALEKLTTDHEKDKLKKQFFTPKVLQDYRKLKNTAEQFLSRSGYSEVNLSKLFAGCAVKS
Metric Name: IC50

The recorded IC50 with human DNA polymerase α (Homo sapiens) for [N-]=[N+]=N[C@]1(COP(=O)(O)OP(=O)(O)OP(=O)(O)O)O[C@@H](n2ccc(=O)[nH]c2=O)[C@H](O)[C@@H]1O [Compound 4AUTP, 4′-azido-uridine triphosphate] was > 1000 µM
